# studySystem: human orexin-1 receptor (Homo sapiens, UniProt O43613)
# Sequence (O43613 1-425): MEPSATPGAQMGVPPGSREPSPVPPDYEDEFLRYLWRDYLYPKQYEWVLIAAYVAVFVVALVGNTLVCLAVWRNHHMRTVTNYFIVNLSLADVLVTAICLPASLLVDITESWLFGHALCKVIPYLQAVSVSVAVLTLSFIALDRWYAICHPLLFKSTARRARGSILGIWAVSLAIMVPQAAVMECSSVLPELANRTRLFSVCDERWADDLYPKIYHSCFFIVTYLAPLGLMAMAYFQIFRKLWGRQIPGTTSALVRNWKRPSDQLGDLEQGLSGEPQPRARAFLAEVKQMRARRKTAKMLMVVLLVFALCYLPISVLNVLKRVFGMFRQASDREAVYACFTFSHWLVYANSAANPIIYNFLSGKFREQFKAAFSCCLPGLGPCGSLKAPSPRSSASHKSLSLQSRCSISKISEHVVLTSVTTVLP
# testName: FLIPR intracellular calcium assay, orexin receptor antagonistic activity (OX1)
# statedConditions: CHO cells expressing human orexin-1 receptor; agonist 3 nM orexin-A; normalized to on-plate reference; * geomean n = 5, *2 geomean n = 2
experimentalReadout: log10 IC50 (log10 of the value in µM)
Heads up, the numbers here are log10 of IC50 in µM units.

Name the recorded log10 IC50 for COc1cccc(OC)c1C1OC(C)(C)C(=O)N1Cc1ccc(OC(F)(F)F)cc1 (stereo not drawn) . -1.54

# repeat for COc1cccc(OC)c1C1OC(C)(C)C(=O)N1Cc1ccc(-c2ccccc2)cc1 (stereo not drawn) -1.19

Okay, and COc1cccc(OC)c1C1OC(C)(C)C(=O)N1Cc1ccc(SC(F)(F)F)cc1 (stereo not drawn) ? -0.92

Proceed to CCOc1ccccc1C1OCC(=O)N1Cc1c(Cl)cccc1Cl (stereo not drawn) 0.26

Also COc1cccc(OC)c1C1OCC(=O)N1Cc1ccc(OC(C)C)cc1 (stereo not drawn) , if possible. 0.51

Field entry: COc1cccc(OCCCO)c1C1OC(C)(C)C(=O)N1Cc1ccc(Oc2ccccc2)cc1 (stereo not drawn) -1.10

Now try COc1cccc(OC)c1C1OC(C)(C)C(=O)N1Cc1ccc(OC(C)C)cc1 (stereo not drawn) . -0.94
